The origin of these recorded values is patent US12703739.

Reported IC50 (ng/ml), neutralization of RVFV-MP-12 values for a set of binders
- tested-target: Gc of RVFV-MP-12 (Rift Valley Fever Virus strain MP-12)
- assay-remarks: cell-based or functional assay
property-label: IC50 (ng/ml), neutralization of RVFV-MP-12 (ng/mL)

binder	numeric-readout
RVFV-326 (antibody, V domains shown) VH: EAQLVESGGGLVKPGGSLRLSCAASGFSFSYAWMSWVRRLPGKGLEWVGRIKGKADGETTDYAAPVKGRFTISRDDSKTTVYLQMNTLKIEDTGVYYCTTDIGDFYDSIGYSYTDYWGQGTLVTVSS VL: EIVLTQSPATLSLSPGERATLSCRASQSVSSYLAWYQQKPGQAPRLLIYDASNRATGIPVRFSGSGSGTDFTLTISSLEPEDFALYYCQQRSDWPPTFGQGTKVEIK	70
RVFV-121 (antibody, V domains shown) VH: QMQLQESGPGLVKPSGTLSLTCAVSGDSISTSTWWSWVRQSPGKGLEWIGEIYHSESTNYNPSLKSRVSLSLDKSKNQLSLRLSSVTAADTGVYYCARGSLVFDYWGQGAQVVVSS VL: EIVMTQSPATLSVSPGERATLSCRASQSVSSNLAWYQQKPGQAPRLLIYAASTRATGIPARFSGSGSGTEFTLTISSLQSEDFAVYYCQQFNNWPRTFGQGTKVEIK	35
RVFV-250 (antibody, V domains shown) VH: QVQLQESGPGLAKPSETLSLTCTVSGGSISSYFWSWIRQPAGKGLEWIGRIHTTGSTNYNPSLKNRVIMSVDTSKNQFSLNLSSVTAADTAVYYCAREGTAFDIWGQGTMVTVSS VL: SYELTQSPSVSVSPGQTASIPCSGDKLGDKYACWYQQKPGQSPVLVIYQDTKRPSGIPERFSGSNSGNTATLTISETQAMDEADYYCQAWDSSTPWVFGGGTKLTVL	51
RVFV-249 (antibody, V domains shown) VH: QVLLVQSEAEVRKPGASVKISCKTSGYTFTTYFMHWVRQAPGQGLEWVAIVDPSTGNTGYAQRFQGRVTVTRDTSTGTLFMELTSLTTEDTAMYYCGRDRGSRAVDSWGQGTLVTVFS VL: QSVLTQPPSVSGAPGQRVTISCSGSSSNVGPNTVSWYQQLPGVAPKLLIYRNNQRPSGVPDRFSGSKFGTSASLVIGGLQSEDEADYYCAAWDDSLNGHMVFGGGTKVAVL	6790
